Collected IC50 values appear next to each entry.
- Tgt: Recombinant human ATX (Homo sapiens, UniProt Q13822)
- Construct: made in house; host or cells: human embryonic kidney (HEK) cells
- Test name: Assessing ATX inhibition: released choline, Amplex Red fluorescence
- Format: biochemical
- Measurement conditions: same assay; compounds outside the scope of the invention; read-out: IC50
- Method: LPC (oleoyl (18:1)) was purchased from Avanti Polar Lipids (Alabaster; AL) and solubilized in methanol to 20 mM. Amplex Red was obtained from Invitrogen Life Technologies (Paisley, UK) and dissolved in DMSO to 10 mM. […] ATX activity was determined by measurement of released choline in reactions containing ATX (10 nM), choline oxidase (0.1 U/ml), HRP (100 U/ml), amplex red (50 μM) and LPC 18:1 (10 μM). […]

O=C(CCCc1c[nH]nn1)NC1CCN(C(=O)OCc2ccccc2)CC1 [reference compound]	1.39 µM
O=C(/C=C/c1c[nH]cn1)N1CCN(C2CCN(C(=O)CCc3ccc(C(F)(F)F)cc3)CC2)CC1 [reference compound]	> 5.5 µM

[ask] Entry O=C(NCC1CCN(C(=O)OCc2cc(Cl)cc(Cl)c2)CC1)c1cc(O)no1 [reference compound] : reported IC50 = ?
[reply] > 1 µM

====

- Tgt: Recombinant human ATX (Homo sapiens)
- Construct: made in house; host or cells: human embryonic kidney (HEK) cells
- Test name: Assessing ATX inhibition: released choline, Amplex Red fluorescence
- Type: biochemical
Measured parameter: pIC50
Keep in mind that pIC50 stands for -log10 of concentration in molar terms.

[ask] Entry O=C(NC1CC2CCC(C1)N2C(=O)CCCc1c[nH]nn1)OCc1cc(Cl)cc(Cl)c1 (stereo not shown) : reported pIC50 = ?
[reply] 5.50

====

- Tgt: Recombinant human ATX (Homo sapiens, UniProt Q13822)
- Construct: made in house; host or cells: human embryonic kidney (HEK) cells
- Test name: Assessing ATX inhibition: released choline, Amplex Red fluorescence
- Type: biochemical
- Measurement conditions: ATX 10 nM, LPC 18:1 10 μM, pre-incubated with ATX at 37° C. for 20 minutes; Table 1, exemplified compounds; read-out: IC50
Measured parameter: pIC50
Keep in mind that pIC50 stands for -log10 of concentration in molar terms.

Take a look at these entries with their results.
CCOc1c(N(C)CCC2CN(C(=O)OCc3cc(Cl)cc(Cl)c3)CCO2)c(=O)c1=O (stereo not shown)	6.27
N#Cc1cc(Cl)cc(COC(=O)N2CCC(NCCCCc3c[nH]nn3)CC2)c1	7.54
O=C(CCCc1c[nH]nn1)NC1CCN(C(=O)CCc2ccc(C(F)(F)F)cc2)CC1	7.06

[ask] Entry O=C(CCCc1c[nH]nn1)NC1CCN(C(=O)OCc2cc(F)cc(Cl)c2)CC1 : reported pIC50 = ?
[reply] 7.26

[ask] Entry O=C(CCCc1c[nH]nn1)NC1CCN(C(=O)OCc2cc(Cl)cc(Cl)c2)CC1 : reported pIC50 = ?
[reply] 8.70

[ask] Entry O=C(CCCc1c[nH]nn1)NC1CCN(C(=O)/C=C/c2cc(Cl)cc(Cl)c2)CC1 : reported pIC50 = ?
[reply] 7.68

[ask] Entry N#Cc1cc(Cl)cc(COC(=O)N2CCC(NC(=O)CCCc3c[nH]nn3)CC2)c1 : reported pIC50 = ?
[reply] 8.10

[ask] Entry O=C(NCCC1CCN(C(=O)OCc2cc(Cl)cc(Cl)c2)CC1)c1nn[nH]n1 : reported pIC50 = ?
[reply] 6.22

[ask] Entry O=C(CCCc1nnn[nH]1)NC1CCN(C(=O)OCc2cc(Cl)cc(Cl)c2)CC1 : reported pIC50 = ?
[reply] 7.68

[ask] Entry CN(CCC1CCN(C(=O)/C=C/c2cc(Cl)cc(Cl)c2)CC1)C(=O)c1c[nH]c(=O)o1 : reported pIC50 = ?
[reply] 6.56

[ask] Entry O=C(CCCc1c[nH]nn1)NC1CCN(C(=O)OCc2ccc(Cl)cc2Cl)CC1 : reported pIC50 = ?
[reply] 6.69
